System: A549/ATCC NSCLC
experimentNotes: NCI-60 one-dose screen, 48 h (100 = growth as untreated, 0 = no growth, -100 = all killed)
conditionContext: 10 µM unless noted
About 83,000 compounds went through this panel and 20% of them were active in at least one assay; those are over-represented in the sample as a whole. Activity calls are given as the source filed them. The calls were made as follows: active = growth percent below 10; inactive = the rest.
Exercise: state measured growth for each of the compounds provided.

IN: Given the compound `CCOC(=O)c1c(C)c2c(n1Cc1ccccc1)CSCC2=O` , what is its reported growth?
OUT: 20.2% [100 µM] (inactive)

IN: Given the compound `O=C(N/N=C\c1ccccc1S(=O)(=O)O)N/N=C/c1ccccc1S(=O)(=O)O` , what is its reported growth?
OUT: 97.9% (inactive)

IN: Given the compound `O=C(CI)NC(=O)NC(=O)NCc1ccccc1` , what is its reported growth?
OUT: 92.9% (inactive)

IN: Given the compound `O=C(CN1CCCCCC1)Nc1nc2ccc(NCc3ccc(Cl)cc3)cc2s1` , what is its reported growth?
OUT: 98.7% (inactive)

IN: Given the compound `CC1(C)CC[C@]23CC[C@]4(C)[C@H](CC[C@@H]5[C@@]6(C)C/C(=C/c7ccncc7)C(=O)C(C)(C)[C@@H]6CC[C@]54C)[C@H]2[C@H]1OC3` , what is its reported growth?
OUT: 76.5% (inactive)

Values from PubChem BioAssay (NCI)
